Origin of the recorded values: PubChem BioAssay AID624483

Assay: compound fluorescence in toxin protease inhibitor counterscreen, primary screen, artefact control for toxin protease inhibitor project, biochemical, multiplex microsphere, HTS (AID 624483)
Details: compound autofluorescence counterscreen, microsphere flow cytometry; hits give high values
Out of some 360,000 compounds screened, about 11,000 (3.1%) were called active. Roughly 2% stayed inconclusive and do not appear here. What follows is part of a selection rich in actives, with near analogues and random picks from the rest.
measured_endpoint: fluorescence intensity

CCn1c(CSc2ncccn2)nnc1SCC(=O)N1c2ccccc2CC1C (configuration not stated) : 23500
CC1CC(C)CN(C(=O)CSc2nnc(CSc3ncccn3)n2C)C1 (configuration not stated) : 4260
Cc1ccc(-n2nc(N)c3c(=O)oc(N(C)C)nc32)cc1 : 23400
CC1Cc2ccccc2N1C(=O)CSc1nnc(C2CC2)n1C (configuration not stated) : 4920
CCCNC(=O)CCc1c(C)nc2c(c(C)nn2-c2ccc(C)cc2)c1C : 3860
CC1Cc2ccccc2N1C(=O)Cn1cnc2ccccc2c1=O (configuration not stated) : 3200
Cc1ccc2c(=O)oc(N(C)C)nc2c1 : 2560
O=C(CSc1nc2ccccc2o1)N1c2ccccc2Sc2ccc(Cl)cc21 : 22300
COc1cccc(CNC(=O)COc2cc(O)c3c(c2)OC(C)(C)CC3=O)c1 : 5480
O=C(CSc1nc2ccccc2o1)N1CCN(c2ccccc2)CC1 : 2560
CC(C)NC(=O)CSc1nnc(COc2ccccc2Cl)o1 : 4480
O=C(CSc1nc2ccccc2o1)N1CCN(c2ccc(Cl)cc2)CC1 : 6400
